assay: Pharmacokinetics assay in BALB/C nude mice after intragastrical administration; type: in vivo; settings: female, mouse, plasma, po, 3 mg/kg, read-out: Half-Life t½ (converted)
measurementLabel: half-life

>  <compound>
CC1Cc2c(oc3cccc(F)c23)C(c2c(F)cc(/C=C/C(=O)O)cc2F)N1CC(C)(C)F (stereo not shown)

>  <measurementLabel>
half-life

>  <result>
1.47 h

$$$$
>  <compound>
CCn1cc(-c2ccc3c(c2)CC(C)N(CC(C)(C)F)C3c2c(F)cc(/C=C/C(=O)O)cc2F)cn1 (stereo not shown)

>  <measurementLabel>
half-life

>  <result>
3.27 h

$$$$
>  <compound>
C[C@@H]1Cc2c(oc3ccccc23)[C@@H](c2c(F)cc(/C=C/C(=O)O)cc2F)N1CC(C)(C)F

>  <measurementLabel>
half-life

>  <result>
2.32 h

$$$$
>  <compound>
C[C@@H]1Cc2cc3c(cc2[C@@H](c2c(F)cc(/C=C/C(=O)O)cc2F)N1CC(C)(C)F)OCO3

>  <measurementLabel>
half-life

>  <result>
1.59 h

$$$$
>  <compound>
C[C@@H]1Cc2cc(-c3cnn(C)c3)ccc2[C@@H](c2c(F)cc(/C=C/C(=O)O)cc2F)N1CC(C)(C)F

>  <measurementLabel>
half-life

>  <result>
2.78 h

$$$$
>  <compound>
CCn1cc(-c2ccc3oc4c(c3c2)CC(C)N(CC(C)(C)F)C4c2c(F)cc(/C=C/C(=O)O)cc2F)cn1 (stereo not shown)

>  <measurementLabel>
half-life

>  <result>
4.53 h

$$$$
>  <compound>
CCn1cc(-c2ccc3c(c2)C[C@@H](C)N(CC(C)(C)F)[C@@H]3c2c(F)cc(/C=C/C(=O)O)cc2F)cn1

>  <measurementLabel>
half-life

>  <result>
2.52 h

$$$$

---

assay: Pharmacokinetics assay in BALB/C nude mice after intragastrical administration; format: in vivo; conditions: female, mouse, plasma, po, 3 mg/kg, read-out: Area Under Curve AUC

>  <compound>
CC1Cc2c(oc3ccc(-c4cnn(C)c4)cc23)C(c2c(F)cc(/C=C/C(=O)O)cc2F)N1CC(C)(C)F (stereo not shown)

>  <AUC (ng·h/mL)>
7710

$$$$
>  <compound>
C[C@@H]1Cc2cc3c(cc2[C@@H](c2c(F)cc(/C=C/C(=O)O)cc2F)N1CC(C)(C)F)OCO3

>  <AUC (ng·h/mL)>
8810

$$$$
>  <compound>
CCn1cc(-c2ccc3c(c2)C[C@@H](C)N(CC(C)(C)F)[C@@H]3c2c(F)cc(/C=C/C(=O)O)cc2F)cn1

>  <AUC (ng·h/mL)>
10100

$$$$
>  <compound>
C[C@@H]1Cc2cc(-c3cnn(C)c3)ccc2[C@@H](c2c(F)cc(/C=C/C(=O)O)cc2F)N1CC(C)(C)F

>  <AUC (ng·h/mL)>
15100

$$$$

---

Some compounds, each annotated with its measured IC50.
Target: estrogen receptor (ER) (Homo sapiens (Human), UniProt P03372)
Sequence (P03372 whole entry): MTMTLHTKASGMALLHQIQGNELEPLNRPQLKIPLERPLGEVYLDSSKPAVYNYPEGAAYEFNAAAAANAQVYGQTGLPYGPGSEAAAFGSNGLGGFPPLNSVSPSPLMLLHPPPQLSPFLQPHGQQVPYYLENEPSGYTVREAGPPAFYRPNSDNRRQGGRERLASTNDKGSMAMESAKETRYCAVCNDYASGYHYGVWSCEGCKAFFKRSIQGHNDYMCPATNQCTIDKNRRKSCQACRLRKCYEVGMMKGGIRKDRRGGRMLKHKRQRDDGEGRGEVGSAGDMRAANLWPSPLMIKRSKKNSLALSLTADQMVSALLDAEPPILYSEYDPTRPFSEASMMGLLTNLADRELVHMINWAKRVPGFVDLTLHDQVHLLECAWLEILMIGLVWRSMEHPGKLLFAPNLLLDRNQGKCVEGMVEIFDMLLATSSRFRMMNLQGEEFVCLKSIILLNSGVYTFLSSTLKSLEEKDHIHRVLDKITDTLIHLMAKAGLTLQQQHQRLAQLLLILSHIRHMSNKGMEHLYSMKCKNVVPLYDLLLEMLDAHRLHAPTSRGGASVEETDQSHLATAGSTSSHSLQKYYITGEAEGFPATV
Assay: Inhibition of the binding of estrogen (E) to estrogen receptor (ER), MCF-7/ERE-luciferase reporter cells
Details: MCF-7/ERE-luciferase cells, 0.1 nM estradiol, 24 hours; read-out: IC50 value of inhibition effect on the binding of E to ER
Experimental: The inhibition effect of the compounds on the binding of E to ER in vitro was tested by the following method. The object of this experiment was to determine the inhibition effect of the compounds on the binding of E to ER, and the in vitro activity of the compounds was evaluated according to the IC50 value. […]

>  <compound>
C[C@@H]1Cc2c(oc3cccc(F)c23)[C@@H](c2c(F)cc(/C=C/C(=O)O)cc2F)N1CC(C)(C)F [Example 74]

>  <IC50>
0.21 nM

$$$$
>  <compound>
CC1Cc2cc(-c3cnn(C4CC4)c3)ccc2C(c2c(F)cc(/C=C/C(=O)O)cc2F)N1CC(C)(C)F (stereo not shown) [Example 58]

>  <IC50>
0.84 nM

$$$$
>  <compound>
Cc1nc2ccc(-c3ccc4c(c3)CC(C)N(CC(C)(C)F)C4c3c(F)cc(/C=C/C(=O)O)cc3F)cc2s1 (stereo not shown) [Example 66]

>  <IC50>
3.25 nM

$$$$
>  <compound>
CC1Cc2cc(-c3ccc(N4CCOCC4)cc3)ccc2C(c2c(F)cc(/C=C/C(=O)O)cc2F)N1CC(C)(C)F (stereo not shown) [Example 60]

>  <IC50>
7.12 nM

$$$$
>  <compound>
CNC(=O)COc1ccc2c(c1)CC(C)N(CC(C)(C)F)C2c1c(F)cc(/C=C/C(=O)O)cc1F (stereo not shown) [Example 32]

>  <IC50>
1.45 nM

$$$$
>  <compound>
CC1Cc2cc(-c3ccc4[nH]ncc4c3)ccc2C(c2c(F)cc(/C=C/C(=O)O)cc2F)N1CC(C)(C)F (stereo not shown) [Example 67]

>  <IC50>
5.48 nM

$$$$
>  <compound>
C[C@@H]1Cc2cc(-c3ccc4cnccc4c3)ccc2[C@@H](c2c(F)cc(/C=C/C(=O)O)cc2F)N1CC(C)(C)F [Example 98]

>  <IC50>
0.85 nM

$$$$

These entries and their values trace back to patent US10087191B2.
